- Test system: E. coli TESEC Mtb DapB
- MEASUREMENT NOTES: growth (OD600 after 10 h); higher = more growth (less inhibition)
- SETUP CONDITIONS: arabinose induction (level): Low; compound 0.1 mM; raw OD600 reference: median of DMSO wells 0.227, cell-free background 0.041
Structures can show the parent of a compound that is named as a salt.
OBSERVATION TYPE: growth
Please state the value as a number alone, without comment.

Example entries and their recorded answers appear below.
[
  {
    "COMPOUND": "C[N+]12CCC(CC1)C(OC(=O)C(O)(c1ccccc1)c1ccccc1)C2 (centres undefined) [Clidinium bromide]",
    "REPORTED": 0.201
  },
  {
    "COMPOUND": "O=[N+]([O-])O[C@H]1CO[C@H]2[C@@H]1OC[C@H]2O[N+](=O)[O-] [Isosorbide dinitrate]",
    "REPORTED": 0.27
  },
  {
    "COMPOUND": "COc1ccc(CN2CCNCC2)c(OC)c1OC [Trimetazidine dihydrochloride]",
    "REPORTED": 0.242
  },
  {
    "COMPOUND": "CC(Cc1ccccc1)NCCC(c1ccccc1)c1ccccc1 (centres undefined) [Prenylamine lactate]",
    "REPORTED": 0.0466
  },
  {
    "COMPOUND": "NC(=O)CN1CCCC1=O",
    "REPORTED": 0.208
  }
]

Quick one: growth for `COc1ccc(CCN2CCC(Nc3nc4ccccc4n3Cc3ccc(F)cc3)CC2)cc1` ? 0.0845

Same read-out for CC(C)N(CCC(C(N)=O)(c1ccccc1)c1ccccn1)C(C)C (centres undefined) [Disopyramide] ? 0.195
